# measurement-description: In vivo PK, IV dose, plasma
# Design: species or system Rat (SD)
# recorded-conditions: SD, rat, plasma, iv, 1 mg/kg, Rat, 1.00 hr, terminal, read-out: Plasma concentration, individual animal
# Description: Table 20 provides results of in vitro and in vivo pharmacokinetics performed for each of the represented compounds. Tables 4 and 5 depict the summary of rat plasma sample concentrations after administration of ADG I-204. FIG. 6 provides a summary of rat plasma and brain concentrations.
measured-property: concentration at 1 h (µg/mL)
Give bare numbers, in µg/mL.

>>> measured_result("CNC(=O)Nc1ccc2nc(-c3cccs3)c(-c3cccs3)nc2c1")
0.176

# next compound below
// recorded concentration at 1 h for COCCNC(=O)Nc1ccc2nc(-c3cccs3)c(-c3cccs3)nc2c1 [ADG-205c] : 1.03
